Numbers sourced from patent US20170340735A1.

Examples of binders with documented kon follow.
Biological target: T1, recombinant monomeric human TIGIT-His (human, UniProt Q495A1 22-141)
T1 construct: also called hTIGIT; not shown: His tag
T1 sequence: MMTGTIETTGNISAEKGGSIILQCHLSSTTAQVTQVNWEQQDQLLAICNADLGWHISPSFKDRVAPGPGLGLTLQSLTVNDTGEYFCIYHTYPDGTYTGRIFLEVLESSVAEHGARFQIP
Assay: BLI (Octet QKe), antibody on AHC sensor, several concentrations of human TIGIT-His, 1:1 global fit, average
Provide the reading as a plain figure in M⁻¹ s⁻¹.

MAB15-IgG4 (antibody, V domains shown) VH: QVQLVQSGAEVKKPGASVKVSCKASGYTFREYYMHWVRQAPGQGLEWMGIINPSIGLTSYARKFQGRVTMTRDTSTSTVYMELSSLRSEDTAVYYCARGGRTTWIGAFDIWGQGTMVTVSS VL: EIVMTQSPATLSVSPGERATLSCRASQSVSSNLAWYQQKPGQAPRLLIYGASTRATGIPARFSGSGSGTEFTLTISSLQSEDFAVYYCQQYVVWPPLTFGGGTKVEIKR; 1.1e+06

IN: Item under review: MAB18-IgG4 (antibody, V domains shown) VH: QVQLVQSGAEVKKPGASVKVSCKASGYTFPAYYMHWVRQAPGQGLEWMGIINPSLGLTSYARKFQGRVTMTRDTSTSTVYMELSSLRSEDTAVYYCARGGRTTWIGAFDIWGQGTMVTVSS VL: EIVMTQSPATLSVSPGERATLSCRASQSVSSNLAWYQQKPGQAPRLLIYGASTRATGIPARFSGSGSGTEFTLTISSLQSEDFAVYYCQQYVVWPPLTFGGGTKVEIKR . Reported kon?
OUT: 750000

IN: Item under review: MAB16-IgG4 (antibody, V domains shown) VH: QVQLVQSGAEVKKPGASVKVSCKASGYTFREYYMHWVRQAPGQGLEWMGIINPSIGLTSYARKFQGRVTMTRDTSTSTVYMELSSLRSEDTAVYYCARGGRTTWIGALDIWGQGTMVTVSS VL: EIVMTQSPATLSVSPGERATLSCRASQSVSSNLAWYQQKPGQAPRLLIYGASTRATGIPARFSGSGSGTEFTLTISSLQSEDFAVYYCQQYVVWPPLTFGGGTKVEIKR . Reported kon?
OUT: 450000
